Target: T1, Mouse soluble TWEAK (untagged, Example 5) (mouse, UniProt O54907 105-249, limits assumed)
T1 construct: also called Murine TWEAK
T1 sequence: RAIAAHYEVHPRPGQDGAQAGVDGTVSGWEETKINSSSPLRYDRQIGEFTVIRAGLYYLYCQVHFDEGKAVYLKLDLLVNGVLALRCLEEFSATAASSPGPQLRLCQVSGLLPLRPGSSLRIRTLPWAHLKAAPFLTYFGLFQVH
Test: receptor interaction ELISA: mouse soluble TWEAK preincubated with antibody, then on coated mouse Fn14:Fc (competitor m22)
Measured IC50, listed per entry for reference.
VALUE KIND: IC50 (ng/mL)

>  <BINDER>
Humanized <TWEAK> 305- antibody 34 (antibody, V domains shown) VH: EVQLLESGGGLVQPGGSLRLSCAASGFDFSTYYMSWVRQAPGKGLEWVSTVYVRQGTTYYASWLNGRFTISRDNSKNTLYLQMNSLRAEDTAVYYCAKGGYNYDDAFVIWGQGTLVTVSS VL: AIRMTQSPSSFSASTGDRVTITCQASQNIYSNLAWYQQKPGKAPKLLIYTASYLASGVPSRFSGSGSGTDYTLTISCLQSEDFATYYCQTAYYNSRPDTVAFGGGTKVEIK

>  <MEASUREMENT UNITS>
ng/mL

>  <NUMERIC VALUE>
5.9

$$$$
>  <BINDER>
Humanized <TWEAK> 305- antibody 30 (antibody, V domains shown) VH: EVQLLESGGGLVQPGGSLRLSCAASGFDFSTYYMSWVRQAPGKGLEWVSTVYVRQGTTYYASWLNGRFTISRDNSKNTLYLQMNSLTAEDTAVYYCAKGGYNYDDAFVIWGQGTLVTVSS VL: DIQMTQSPSSVSASVGDRVTITCQASQNIYSNLAWYQQKPGKAPKLLIYTASYLASGVPSRFSGSGSGTDFTLTISSLQPEDFATYYCQTAYYNSRPDTVAFGGGTKVEIK

>  <MEASUREMENT UNITS>
ng/mL

>  <NUMERIC VALUE>
7.6

$$$$
>  <BINDER>
Humanized <TWEAK> 305- antibody 32 (antibody, V domains shown) VH: EVQLLESGGGLVQPGGSLRLSCAASGFDFSTYYMSWVRQAPGKGLEWVSTVYVRQGTTYYASWLNGRFTISRDNSKNTLDLQMNSLRAEDTAVYYCAKGGYNYDDAFVIWGQGTLVTVSS VL: DIQMTQSPSTLSASVGDRVTITCQASQNIYSNLAWYQQKPGKAPKLLIYTASYLASGVPSRFSGSGSGTEFTLTISSLQPDDFATYYCQTAYYNSRPDTVAFGGGTKVEIK

>  <MEASUREMENT UNITS>
ng/mL

>  <NUMERIC VALUE>
5.4

$$$$
